Where do these numbers come from? They come from PubChem BioAssay.

Experiment: Restrictive medium S. cerevisiae growth inhibition, OD615, pilot screen of yeast lifespan reduction project, restrictive growth control (AID 706);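 also: modified DeaD lifespan yeast strain shifted to restrictive glucose medium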
Settings: OD615, 48 h, at 10 µM
Calls of active or inactive are those of the source.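 The calls were made as follows: active = growth inhibition above a set limit, 3 SD over mean compound inhibition, in both replicates (cut at about 43% in these data); inconclusive = above the limit in only one replicate; inactive = at or below the limit in both replicates.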
Reply using exactly one outcome from true = active, false = inactive

Incoming: Which outcome was entered for the compound `Cn1c(NC(=O)c2cc(Cl)ccc2Cl)cc(=O)n(C)c1=O` in this test?
Outgoing: false

Incoming: Now the same for `Clc1cccc(CSc2nnc([C@@H]3CCCN3)o2)c1`
Outgoing: false

Incoming: Now the same for `O=C(Nc1cccnc1)c1cc(-c2ccc(Br)cc2)on1`
Outgoing: false

Incoming: Now the same for `CCOC(=O)c1nnn(-c2nonc2N)c1-c1ccccc1`
Outgoing: false

Incoming: Now the same for `COc1ccccc1-c1c(C)nn2c(NCCN3CCCC3)cc(C)nc12`
Outgoing: false

Incoming: Now the same for `CC(=O)N(CCCc1ccc(C(C)(C)C)cc1)CCCN(C)C`
Outgoing: false

Incoming: Now the same for `COc1ccc(C(=O)c2c[nH]c3ccccc23)cc1`
Outgoing: false

Incoming: Now the same for `O=C(Nc1ccc(F)cc1F)N1CCN(c2ncccn2)CC1`
Outgoing: false

Incoming: Now the same for COc1ccc(NC(=O)C(c2ccc(OC)cc2)N(C)C(=O)c2cnccn2)cc1 (centres undefined)
Outgoing: false

Incoming: Now the same for `COc1ccc(CCNc2ncnc3nc[nH]c23)cc1OC`
Outgoing: false

Incoming: Now the same for `O=C(N1CCOCC1)N1CCN(c2ccccc2F)CC1`
Outgoing: false

Incoming: Now the same for `CCOC(=O)c1sc(NC(=O)C2CC2)nc1C`
Outgoing: false

Incoming: Now the same for `CC(=O)c1ccc(-n2nncc2C)cc1`
Outgoing: false

Incoming: Now the same for `Cn1c(C(=O)NCCCN2CCN(c3ccccc3F)CC2)cc2c(=O)n(C)c3ccccc3c21`
Outgoing: false

Incoming: Now the same for `O=S(=O)(NC1CCCCC1)c1cccc(-c2nnc(-c3ccccc3)o2)c1`
Outgoing: false

Incoming: Now the same for `C(=C\CSc1nnnn1-c1ccccc1)/CSc1nnnn1-c1ccccc1`
Outgoing: false

Incoming: Now the same for `O/N=C1\CCCc2oc3c(c21)CCCC3`
Outgoing: false

Incoming: Now the same for `COC(=O)c1sc2nc3c(cc2c1N)COC(C)(C)C3`
Outgoing: false

Incoming: Now the same for CC1(C)CC2(CC(C)(C)N1)OC(=O)N1CCc3ccccc3C12C (centres undefined)
Outgoing: false

Incoming: Now the same for `C=CCSc1nnc2nc3c(nn12)c1cc(C)ccc1n3CC=C`
Outgoing: true

Incoming: Now the same for `CCc1ccc(NC(=O)c2ccc3c(c2)C(=O)N(Cc2ccco2)C3=O)cc1`
Outgoing: false

Incoming: Now the same for `COCCN1C=C(C(=O)OC)C(c2cc(Br)c(OC)c(OC)c2)C(C(=O)OC)=C1`
Outgoing: false

Incoming: Now the same for `CCOC(=O)c1c(NC(=O)c2cc(C3CC3)on2)sc(C(C)=O)c1C`
Outgoing: false

Incoming: Now the same for `COC(=O)c1ccc(NCC(=O)c2ccccc2)cc1`
Outgoing: false
